system: Staphylococcus aureus; experiment: Antimicrobial activity against Staphylococcus aureus Smith by micro broth dilution or agar based method; type: functional; details: Staphylococcus aureus, Smith; read-out: MIC
Listed here: items and their measured MIC.
Respond numerically; units are µg/mL and should not be typed.

Guide cases for MIC, answers given:
Compound Structure | Tgt | Output Unit | Observed Result
CN(C)c1cnc2c(CCC34CCC(NCc5ccc6c(n5)NC(=O)CO6)(CC3)CO4)c(F)cnc2c1 | Staphylococcus aureus | µg/mL | 16
COc1nc2c(CCC34CCC(NCc5ccc6c(n5)NC(=O)CO6)(CC3)CO4)ccnc2cc1C#N | Staphylococcus aureus | µg/mL | 16

[Q] Tell me measured MIC for COc1nc2c(CCC34CCC(NCc5ccc6c(n5)NC(=O)CO6)(CC3)CO4)ccnc2cc1Cl please.
[A] 0.5

[Q] Input COc1ccc2ncc(F)c(CCC34CCC(NCc5ccc6c(n5)NC(=O)CO6)(CC3)CO4)c2n1 , output reported MIC.
[A] 0.016

[Q] Please list MIC recorded for the compound N#Cc1ccc2ncc(C#N)c(CCC34CCC(NCc5ccc6c(n5)NC(=O)CO6)(CC3)CO4)c2n1
[A] 0.25

====

Some molecules, each annotated with its measured MIC.
test system: Enterococcus faecium; assay: Antimicrobial activity against VanA expressing vancomycin-resistant Enterococcus faecium by micro broth dilution or agar based method; format: functional; details: Enterococcus faecium; read-out: MIC
Answer in µg/mL, number only, no unit symbol.

Compound Structure | Output Unit | MIC
N#Cc1ccc2ncc(C#N)c(CCC34CCC(NCc5ccc6c(n5)NC(=O)CO6)(CC3)CO4)c2n1 | µg/mL | 4

[Q] Retrieve MIC on Enterococcus faecium; query COc1cc(OC)c2nccc(CCC34CCC(NCc5ccc6c(n5)NC(=O)CO6)(CC3)CO4)c2n1
[A] 8

[Q] Please tell me the measured MIC for N#Cc1ccc2ncc(F)c(CCC34CCC(NCc5ccc6c(n5)NC(=O)CO6)(CC3)CO4)c2n1 ; system: Enterococcus faecium.
[A] 2

[Q] State MIC (Enterococcus faecium) of O=C1COc2ccc(CNC34CCC(CCc5c(F)cnc6ccc(O)nc56)(CC3)OC4)nc2N1 .
[A] 8

[Q] Give reported MIC for COc1ccc2ncc(OC)c(CCC34CCC(NCc5ccc6c(n5)NC(=O)CO6)(CC3)CO4)c2n1 (Enterococcus faecium)
[A] 4

====

assay: Oral bioavailability in C57BL/6 mouse at 10 mg/kg; assay type: ADME, organism-based; details: in vivo
Reported Property: bioavailability (%)
Write it as a number; the unit % goes unstated.

Compound Structure | Reported Property | Observed Result
COc1ccc2ncc(F)c(CCC34CCC(NCc5ccc6c(n5)NC(=O)CO6)(CC3)CO4)c2n1 | bioavailability | 71

Shifting focus to the compound that follows.
[Q] Give reported bioavailability value for COc1ccc2nccc(CCC34CCC(NCc5ccc6c(n5)NC(=O)CO6)(CC3)CO4)c2n1
[A] 30.4

====

assay: Half life in C57BL/6 mouse at 1 mg/kg, iv or 10 mg/kg, po; type: ADME, organism-based; conditions: in vivo
Reported Property: half-life (h)
Entry rule: numbers only, all in h.

[Q] Give me measured half-life, please, for this molecule: COc1ccc2nccc(CCC34CCC(NCc5ccc6c(n5)NC(=O)CO6)(CC3)CO4)c2n1
[A] 7.97

====

tested on: Staphylococcus aureus; assay: Antimicrobial activity against methicillin-resistant Staphylococcus aureus OIT971 by micro broth dilution or agar based method; type: functional
Reported Property: MIC (µg/mL)
I only need the number, in µg/mL, no unit after it.

[Q] Give MIC for COc1cc2ncc(F)c(CCC34CCC(NCc5ccc6c(n5)NC(=O)CO6)(CC3)CO4)c2nc1OC
[A] 0.25

[Q] State its MIC: COc1cc(OC)c2nccc(CCC34CCC(NCc5ccc6c(n5)NC(=O)CO6)(CC3)CO4)c2n1
[A] 0.25

[Q] Tell me measured MIC for CCOc1cc(C)c2ncc(F)c(CCC34CCC(NCc5ccc6c(n5)NC(=O)CO6)(CC3)CO4)c2n1 please.
[A] 0.031

[Q] Let me know recorded MIC for Cc1cc(C#N)nc2c(CCC34CCC(NCc5ccc6c(n5)NC(=O)CO6)(CC3)CO4)ccnc12 , thanks.
[A] 0.5

====

Each item that follows carries a reported MIC.
tested on: Enterococcus faecium; experiment: Antimicrobial activity against VanA expressing vancomycin-resistant Enterococcus faecium by micro broth dilution or agar based method; type: functional; conditions: Enterococcus faecium; read-out: MIC
Returns: string containing the numeric result and its unit.

Compound Structure | MIC
CN(C)c1nc2c(CCC34CCC(NCc5ccc6c(n5)NC(=O)CO6)(CC3)CO4)ccnc2cc1F | 16 µg/mL
COc1ccc2ncc(CO)c(CCC34CCC(NCc5ccc6c(n5)NC(=O)CO6)(CC3)CO4)c2n1 | 4 µg/mL
CCOc1cc(C)c2ncc(F)c(CCC34CCC(NCc5ccc6c(n5)NC(=O)CO6)(CC3)CO4)c2n1 | 4 µg/mL
CN(C)c1cnc2c(CCC34CCC(NCc5ccc6c(n5)NC(=O)CO6)(CC3)CO4)c(F)cnc2c1 | 16 µg/mL
COc1ccc2ncc(C(F)(F)F)c(CCC34CCC(NCc5ccc6c(n5)NC(=O)CO6)(CC3)CO4)c2n1 | 1 µg/mL

[Q] Report MIC for COc1ccc2ncc(F)c(CCC34CCC(NCc5ccc6c(n5)NC(=O)CO6)(CC3)CO4)c2n1
[A] 0.5 µg/mL

[Q] Specify MIC for O=C1COc2ccc(CNC34CCC(CCc5c(F)cnc6ccc(N7CCOCC7)nc56)(CC3)OC4)nc2N1 and stop.
[A] 8 µg/mL

[Q] Look up and state reported MIC for COc1nc2c(CCC34CCC(NCc5ccc6c(n5)NC(=O)CO6)(CC3)CO4)ccnc2cc1C#N
[A] 64 µg/mL

[Q] Answer with the recorded MIC for the molecule listed here: CCOC(=O)c1c(OC)cnc2c(CCC34CCC(NCc5ccc6c(n5)NC(=O)CO6)(CC3)CO4)ccnc12
[A] 16 µg/mL

[Q] Quickly give me recorded MIC for COc1ccc2ncc(O)c(CCC34CCC(NCc5ccc6c(n5)NC(=O)CO6)(CC3)CO4)c2n1
[A] 2 µg/mL

====

system: Staphylococcus aureus; experiment: Antimicrobial activity against methicillin-resistant Staphylococcus aureus OIT971 by micro broth dilution or agar based method; assay type: functional
Entries and their MIC values follow.
The number alone won't do; follow it with the unit.

These recorded examples may help you get a feel for the data.
Compound Structure | Tgt | MIC
COc1ccc2nc(N3CCN(C)CC3)c(F)c(CCC34CCC(NCc5ccc6c(n5)NC(=O)CO6)(CC3)CO4)c2n1 | Staphylococcus aureus | 16 mg/L
COc1ccc2nccc(CCC34CCC(NCc5ccc6c(n5)NC(=O)CO6)(CC3)CO4)c2n1 | Staphylococcus aureus | 0.031 mg/L
COc1cc2nccc(CCC34CCC(NCc5ccc6c(n5)NC(=O)CO6)(CC3)CO4)c2nc1C(=O)O | Staphylococcus aureus | 16 mg/L

Then this compound:
[Q] Please give measured MIC of the following entry: CN(C)c1nc2c(CCC34CCC(NCc5ccc6c(n5)NC(=O)CO6)(CC3)CO4)ccnc2cc1F
[A] 1 mg/L

====

system: Enterococcus faecium; test: Antimicrobial activity against VanA expressing vancomycin-resistant Enterococcus faecium by micro broth dilution or agar based method; type: functional; details: Enterococcus faecium; read-out: MIC
Reported Property: MIC (µg/mL)
State the answer as a number, implicitly in µg/mL.

Below, each entry is followed by its recorded MIC result.
Compound Structure | MIC / µg/mL
COc1nc2c(CCC34CCC(NCc5ccc6c(n5)NC(=O)CO6)(CC3)CO4)c(F)cnc2cc1C(F)(F)F | 8
COc1ccc2ncc(C)c(CCC34CCC(NCc5ccc6c(n5)NC(=O)CO6)(CC3)CO4)c2n1 | 1
Cc1ccc2ncc(F)c(CCC34CCC(NCc5ccc6c(n5)NC(=O)CO6)(CC3)CO4)c2n1 | 4

Next, consider the following compound.
[Q] Note MIC for the compound shown: COc1ccc2ncc(C(N)=O)c(CCC34CCC(NCc5ccc6c(n5)NC(=O)CO6)(CC3)CO4)c2n1
[A] 16

====

system: Staphylococcus aureus; test: Antimicrobial activity against methicillin-resistant Staphylococcus aureus OIT971 by micro broth dilution or agar based method; assay type: functional
Reported Property: MIC
Number first, unit second: that is the form wanted.

Solved entries:
Compound Structure | Reported Property | Observed Result
CN(C)c1ccc2ncc(F)c(CCC34CCC(NCc5ccc6c(n5)NC(=O)CO6)(CC3)CO4)c2n1 | MIC | 0.25 µg/mL
Cc1cc(S(C)(=O)=O)nc2c(CCC34CCC(NCc5ccc6c(n5)NC(=O)CO6)(CC3)CO4)ccnc12 | MIC | 1 µg/mL
O=C1COc2ccc(CNC34CCC(CCc5c(F)cnc6cc(C(F)(F)F)cnc56)(CC3)OC4)nc2N1 | MIC | 16 µg/mL
COC(=O)c1ccc2ncc(F)c(CCC34CCC(NCc5ccc6c(n5)NC(=O)CO6)(CC3)CO4)c2n1 | MIC | 0.063 µg/mL
O=C1COc2ccc(CNC34CCC(CCc5c(F)cnc6ccc(N7CCOCC7)nc56)(CC3)OC4)nc2N1 | MIC | 0.25 µg/mL

[Q] Give the reported value of MIC for this record: Nc1ccc2ncc(F)c(CCC34CCC(NCc5ccc6c(n5)NC(=O)CO6)(CC3)CO4)c2n1
[A] 1 µg/mL
